procedure details: yeast display, Sf9 membrane polyspecificity reagent, FACS + sequencing; frameworks hold sequencing errors
parameter: polyreactivity (PSR sort gate)

# input Please look up its polyreactivity (PSR sort gate): QVQLVESGGGLVQAGGSLRLSCAASGRTFTYYAMGWYRQATGKERELVAAISRGGGSTHYADSVKGRFTISRDNAKNTVYFQMNSLKPEDTAVYYCAARYSTRYKYDYWGQGTQVTVSS
# output high polyreactivity

# input Would you mind telling me what polyreactivity (PSR sort gate) value was observed for QVQLVESGGGLVQAGGSLRLSCAASGSTFLPYAMGWYRQAPGKERELVAAIRWSVGSTYYADSVKGRFTISRDNAKNTVYLQMNSLKPEDTAVYYCAVTYGRGYEYWGQGTQVTVSS ?
# output high polyreactivity

# input Name the recorded polyreactivity (PSR sort gate) for QVQLVDSGGGLVQAGGSLRLSCAASGIIFAYNAMGWYRQAPGKERELVAAITSGTSTHYADSVKGRFTISRDNAKNSVYLHINSLNPEDTAVYYCNADYFFEFDYWGQGTQVTVSS .
# output low polyreactivity

# input Would you kindly share the measured polyreactivity (PSR sort gate) for QVPLVESAGGLVQAGGSLRLSCAASGSTFYPYAMGWYRQAPGKERELVAAISSGGSTSYADSVKGRFTISRDNAKNTVYLQMNSLKPEDTEVYYCHASSPGAVPVYDYDYWGQGTQVTVSS ?
# output low polyreactivity

# input Could you share which polyreactivity (PSR sort gate) value was measured for QVQLVESGGGLVQAGGSLRLSCAASGFTFRSYTMGWYIQAPGKERELVATITWNGGSTYYADSVKGRFTISRDNAKNTVYLQMNSLKPEDTAVYYCAADPPWNFWNYYRMDYWGQGTQVTVSS ?
# output low polyreactivity

---
# input Entry QVQLVESGGGLVQAGGSLRLSCAASGSTFYVNAMGWYRQAPGKERELVAAISSGGSTYYADSVKGRFTISRDNAKNTVYLQMNSLKPEDTAVYYCAAASPWGSDYDYWGQGTQVTVSS has what polyreactivity (PSR sort gate)?
# output low polyreactivity

# input polyreactivity (PSR sort gate) for QVQLVESGGGLVQAGGSLRLSCAASGRIFPDYDMGWYRQAPGKERELVAAITQRGGSTYADSVKGRFTISRDNAKNTVYLQMNSLKPEDTSVYYCAREYYEGYEYWGQGTQVTVSS ?
# output low polyreactivity

# input Look up polyreactivity (PSR sort gate): QDQLVESGGGLVQEGGSLRLSCAASGLIFTYYAMGWYRQAPGKERELVAAINYSGGSTYYADSVKGRFTISRDNAKNTVYLQMNSLKPEDTAVYYCDARRVTQTEGPMGYWGQGTQVTVSS
# output low polyreactivity

# input Using the record for QVQLVESGGGLVQAGGSLRLSCAASGRTFFLYTMGWYRQAPGKEREFVAAINYSGGRTYYADSVKGRVTISRDHAKNTVYLQMNSLKPEDTAVDYCNAVYSFLYPDHMGYWGQGTQVTVSS , report its polyreactivity (PSR sort gate).
# output high polyreactivity

# input For QLQLVESGGGLVQAGGSLRLSFAASSIIPYNAMGWYRQAPVNEREFVAAISVRGVITYYADSVKGRFTISRDNAKNTVYLQMNSLKPEDTAVYDCAADYQPAGVDYWGQGTQVTVSS , what is its reported polyreactivity (PSR sort gate)?
# output low polyreactivity

# input Field request: polyreactivity (PSR sort gate) | item: QVQLVESGGGLVQAGGSLRLSCAASGSIFVLYAMGWYRQAPGKERELVAAITSAGSTYYADSVKGRFTISRDNAKNTVYLQMNSLKPEDTAVYYCAARRGASQRRYNYWGQGTQVTVSS
# output high polyreactivity

# input Please report the recorded polyreactivity (PSR sort gate) for QVQLVESGGGLVQAGGSLRLSCAASGRIFGYYAMGWYRQAPGKERELVAAITSGGRTYYADSVKGRFTISRDNAKNTVYLHMNSLKPEDTAVYYCAAVRALRKVRDYYYWGQGTQVTVSS .
# output high polyreactivity

# input Fill in the blank: the reported polyreactivity (PSR sort gate) of QVQLVESGGGLVQAGGSLRLSCAASGRIFYGYAIGWYRQAPGKEREFVARINVSGTSTFYADSVKGRFTISRDNAKNTVYLQMTSLKPEDTAVYDCAARGLPSNDYYYVHGYIMDYWGQGTQVTVSS is ____.
# output low polyreactivity

# input Given the entry QVQLVESGGGLVQAGGSLRLSCPASGRTFYTNAMGWYRHAPGKERELVAAITRGGSTYYADSVKGRFTISRDNAKNTVYLQMYSLKPEDTAVYYCAAAYASSWRQRVTSEKGYYWGQGTQVTVSS , report its measured polyreactivity (PSR sort gate).
# output high polyreactivity

* * *

procedure details: yeast display, Sf9 membrane polyspecificity reagent, FACS + sequencing; frameworks hold sequencing errors
parameter: polyreactivity (PSR sort gate)

# input Would you mind telling me what polyreactivity (PSR sort gate) value was observed for QVQLVESGGGLVQAGGSLRLSCAASGSTFRGNAMGWSRQAPGKERELVAAISSSGGSTYYADSVKGRFTISRDNAKNTVYLQMNSLKPEDTAVYYCAALYHWTYDYWGQGTQVTVSS ?
# output low polyreactivity

# input Fill in: polyreactivity (PSR sort gate) of QVHLVESGGGLVQAGGSLRLSCAASGRNSLRNGMGWYKQAPGKEWELDPAITSGSSTDYADSVKGRFTISRDNAKNTVDLEMNSLKPEDTAVSYCAKDLLQYGPGAGRYDYWGQGTQVTVSS is ___
# output low polyreactivity

# input Find the recorded polyreactivity (PSR sort gate) belonging to QVQLVESGGGLVQAGGSLRLSCAASGSTFRRYAMGWYRQAPGKERELVAAISSSGDSTYYADSVKGRFTISRDNAKNTVYLQMNSLKPEDTAVYYCATRLRQVYRSQSSGYDYWGQGTQVTVSS and report it.
# output low polyreactivity

# input Would you kindly share the measured polyreactivity (PSR sort gate) for QVQLVESGGGLVQAGGSLRLSCAASGSIFLYNAMGWYRQAPGKERELVADISWSGGSTYYADSVKGRFTISRDNAKNTVYLQMNSLKPEDTAVYYCNAVVYWFSTSYVYTYDYWGQGTQVTVSS ?
# output high polyreactivity

# input Recorded polyreactivity (PSR sort gate) of QVQLVESGGGLVQAGGSLRLSCAASGYTFVVYAMGWYRPAPGKERELVAAINKSGGSTYYADSVKGRFTISRDNAKNTVYLQMNSLKPEDTAVYYCAAVVWILYSSSRGDYWGQGTQVTVSS , please.
# output low polyreactivity

# input What does the record list as polyreactivity (PSR sort gate) for QVQLVESGGGLLKAGGSLRLTCAASGRIFSSYDMGWYRQAPGKERELVAAISNSGGNTYYADSVKGRFTISRDNAKNTVYLQMNSLKPEDTAVYYCAAVAFWAIFDFYWYYPYEYDYWGQGTQVTVSS ?
# output high polyreactivity

More entries:
# input I am curious: what polyreactivity (PSR sort gate) value has been reported for QVQLVESGGGLVQAGGSLRLSCAASGFIFSSYAMGWYIQAPGKERELVAAISRSGGRTYYADSVKGRFTISRDNAKNTVYLKMNSLKPEDTAVYYCAAKWLGTAGDDYWGQGTQVTVSS ?
# output high polyreactivity

# input Request the reported polyreactivity (PSR sort gate) associated with QVQHEESRGGLVQAGGSLRLSCAASVRTFSVNAMGRYRQAPGKEREFVAVISSNGGSTYYADSVKGRFTISLDNAKNTVYLQMNSLKPEDTAVYYCNARYWRGWGGRVSKYGYWGHGTQVTVSS
# output high polyreactivity

# input Reported polyreactivity (PSR sort gate), sequence QVQLVESGGGLVQAGGSLRLSCAASVIIFRQYAMGWSRQAPGKERELVAAISGSGGTTYYADSVKGRFTISRDNAKNTVYLQMNSLKPEDTAVYYCAADSSSRGRLDYWGQGTQVTVSS : ____
# output high polyreactivity

# input polyreactivity (PSR sort gate) for QVQLVESGGGLVQAGGSLRLSCAASGFIFNRYAMGWYRQAPGKERELVADITGGSTYYADSVKGRFTISRDNAKNTVYLQMNSLKPEDTAVYYCAADVLRISTQLFRGPGFDSWGQGTQVTVSS ?
# output low polyreactivity

# input Which measured polyreactivity (PSR sort gate) value corresponds to QVQLVESCGGIDQAGGSLRLTCAATGRIFNSYPMGWYRQAPGKERELVAAISRNGGITYYADSVKARFTISRDNAKITVYLQMNILKQEDTAVYYCNADSSRRLYSSEYWGEGTQVTVSS ?
# output high polyreactivity

# input Fill in the blank: the reported polyreactivity (PSR sort gate) of QVQLVESGGGLFQAGGSLRLICAASGITFEYNTMGWYRQAAGKERELVAAITSDGGSTYYADSVKGRFSISRDNAKNTVYLQMNSLKPEDTAVYYFAAVFYDQYYYWGQGTQVTVSS is ____.
# output high polyreactivity

# input Name the reported polyreactivity (PSR sort gate) value associated with the sequence QVQLVDSGRGFVQAGGSLRLSCAASGSTYPGNEMGRSRQAPGKESELVAAIRWSGGSTYYADSVKGRFTISRDNAKNNVYLQMNSLKPEDTAVYYCAADYLIPDTYLFQAYVGFEYWGQGTLVTVSS
# output low polyreactivity

# input Using the record for QVQLVESGGGLVQAGGSLRLSCAASGRTFTNNVMGWYRQAPGKERELVAAITSGGTNYADSVKGRFTISRDNAKNTVYLQMNSLKPEDTAVYYCATDYYDEVTIGYDYWGQGTQVTVSS , report its polyreactivity (PSR sort gate).
# output low polyreactivity

# input Which polyreactivity (PSR sort gate) is reported for this sequence? QVQLVESGGGLVQAGGSLRLSCAASGSTFGYYAMGWYRQAPGKERELVAVITRGGSTYYADSVKGRFTISRDNAKNTVYLQLNSLKPEDTAVYYCNARVQAVHYGYWGQGTQVTVSS
# output high polyreactivity
